# assayed-system: human GM-CSF T117 isoform (human, UniProt P04141 18-144)
# Sequence (P04141 18-144 I117T limits assumed): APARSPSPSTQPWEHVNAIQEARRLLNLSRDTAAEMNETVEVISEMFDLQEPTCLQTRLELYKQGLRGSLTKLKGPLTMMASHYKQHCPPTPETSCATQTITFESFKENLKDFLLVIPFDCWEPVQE
# test-method-notes: cell-based or functional assay
Measured IC50 (pM), inhibition of GM-CSF induced TF-1 proliferation (32 pM GM-CSF, average n = 3) values are reported for all entries that follow.
Reply with just the number (in pM).

Examples with their reported IC50 (pM), inhibition of GM-CSF induced TF-1 proliferation (32 pM GM-CSF, average n = 3) follow.
binder	reported
4K21 hVH S55K-T62S hVL S27eY-N28I-H34S-N53R-H93F (MSB0010629) (antibody, V domains shown, Tested as IgG ('optimized 4K21 IgGs'); the humanized parent is hIgG1 kappa; also called optimized 4K21 antibody with S27eY; 4K21 (4K21 VH S55K-T62S VL S27eY-N28I-H34S-N53R-H93F)) VH: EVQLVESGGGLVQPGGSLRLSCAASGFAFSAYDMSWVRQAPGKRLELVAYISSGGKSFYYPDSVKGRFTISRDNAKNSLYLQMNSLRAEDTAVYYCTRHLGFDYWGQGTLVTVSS VL: DIVMTQSPLSLPVTPGEPASISCRSSQSLVNYIGNTYLSWYLQKPGQSPQLLIYKVSRRFSGVPDRFSGSGSGTDFTLKISRVEAEDVGVYYCSQSTFVPPTFGQGTKVEIK	44
anti-GM-CSF 4K21 hIgG1 K antibody (MSB0010259), recombinant chimeric 4K21 (antibody, V domains shown, Murine variable domains fused to human constant IgG1 heavy chain and kappa light chain domains; also called parental chimeric 4K21) VH: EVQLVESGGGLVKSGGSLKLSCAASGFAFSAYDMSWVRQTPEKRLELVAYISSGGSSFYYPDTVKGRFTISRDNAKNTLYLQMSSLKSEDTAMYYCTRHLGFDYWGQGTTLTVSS VL: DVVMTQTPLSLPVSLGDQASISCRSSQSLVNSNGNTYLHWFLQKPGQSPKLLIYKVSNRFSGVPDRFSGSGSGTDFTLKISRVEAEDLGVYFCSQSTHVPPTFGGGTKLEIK	1410

Next binder, IC50 (pM), inhibition of GM-CSF induced TF-1 proliferation (32 pM GM-CSF, average n = 3) to be filled in.
Q) Can you look up the measured IC50 (pM), inhibition of GM-CSF induced TF-1 proliferation (32 pM GM-CSF, average n = 3) of 4K21 hVH S55K-T62S hVL N28I-H34S-N53R-H93F (MSB0010628) (antibody, V domains shown, Tested as IgG ('optimized 4K21 IgGs'); the humanized parent is hIgG1 kappa; also called optimized 4K21 antibody; 4K21 (4K21 VH S55K-T62S VL N28I-H34S-N53R-H93F)) VH: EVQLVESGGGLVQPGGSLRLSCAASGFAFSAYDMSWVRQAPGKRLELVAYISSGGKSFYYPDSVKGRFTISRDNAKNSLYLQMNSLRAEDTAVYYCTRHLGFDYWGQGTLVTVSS VL: DIVMTQSPLSLPVTPGEPASISCRSSQSLVNSIGNTYLSWYLQKPGQSPQLLIYKVSRRFSGVPDRFSGSGSGTDFTLKISRVEAEDVGVYYCSQSTFVPPTFGQGTKVEIK for me?
A) 22
